These data points were gathered from patent US10301272B2.

Kindly supply the reported pIC50 (REN) values for the records listed here.
# measurement-target: RORγ (Homo sapiens, UniProt P51449)
# Sequence (P51449 whole entry, looked up, the tested form may be a part): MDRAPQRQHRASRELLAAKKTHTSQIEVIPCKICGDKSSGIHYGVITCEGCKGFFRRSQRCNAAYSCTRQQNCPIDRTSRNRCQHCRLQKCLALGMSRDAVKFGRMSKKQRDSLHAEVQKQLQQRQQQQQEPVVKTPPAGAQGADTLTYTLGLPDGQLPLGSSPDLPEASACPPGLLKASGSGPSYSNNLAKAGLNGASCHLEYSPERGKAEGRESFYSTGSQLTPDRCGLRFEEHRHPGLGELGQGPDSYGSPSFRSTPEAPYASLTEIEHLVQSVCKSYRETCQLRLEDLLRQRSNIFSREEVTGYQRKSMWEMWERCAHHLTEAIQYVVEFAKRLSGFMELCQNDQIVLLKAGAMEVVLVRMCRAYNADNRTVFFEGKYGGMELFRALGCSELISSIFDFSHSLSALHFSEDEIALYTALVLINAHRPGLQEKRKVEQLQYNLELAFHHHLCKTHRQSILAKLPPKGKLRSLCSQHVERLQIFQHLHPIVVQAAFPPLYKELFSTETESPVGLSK
# experiment-description: RORγ Gal4 Reporter Gene Assay
# Type: cell-based
# Description: Determination of a ligand mediated Gal4 promoter driven transactivation to quantify ligand binding to RORγ was performed as follows: DNA encoding three different RORγ protein fragments was cloned into vector pCMV-BD (Stratagene). Expression was under control of a CMV promoter and as fusion to the DNA-binding domain of the yeast protein GAL4. […]

Answered examples (2):
>  <compound>
O=C(NC1CCS(=O)(=O)CC1)c1nc(CC2CCCCC2)c(-c2ccc(N3CCOCC3)c3ccccc23)s1

>  <data-value>
6.5/6.9/6.9

$$$$
>  <compound>
CC(C)(C)NS(=O)(=O)c1ccc(-c2sc(C(=O)NC3CCC(C(=O)O)C3)nc2CC2CCCCC2)c2ccccc12 (stereo not drawn)

>  <data-value>
6.3/8.4/8.4

$$$$

I have 6 compounds here; please give me pIC50 (REN) for each one.
1. CC(C)(C)NS(=O)(=O)c1ccc(-c2nc(C(=O)NC3CCS(=O)(=O)CC3)oc2CC2CCCCC2)c2ccccc12
2. CC(C)(C)c1cc(-c2sc(S(N)(=O)=O)nc2CC2CCCCC2)cc(C2(C)CC2)c1
3. CC1(c2cc(Cl)cc(-c3sc(C(=O)N[C@H]4C[C@H](C(=O)O)C4)nc3CC3CCCCC3)c2)CC1
4. CC(C)(O)CNC(=O)c1nc(CC2CCCCC2)c(-c2ccc(S(=O)(=O)NC3(C(N)=O)CC3)c3ccccc23)s1
5. CC(C)(C)NS(=O)(=O)c1ccc(-c2oc(C(=O)N3CC4(CCS(=O)(=O)CC4)C3)nc2CC2CCCCC2)c2ccccc12
6. CC(C)(C)NS(=O)(=O)c1ccc(-c2sc(C(=O)NCC3(O)CCOCC3)nc2CC2CCCCC2)cc1C(C)(C)O

1. 6.3/7.2/7.3
2. 7.0/6.5/6.7
3. 5.4/6.9/7.0
4. 6.4/7.5/7.6
5. 6.3/8.5/8.5
6. 6.7/7.7/7.7
